- target.or.test.system: CDK4/cyclin D3 (Homo sapiens)
- Construct: purchased Carna Biosciences, Inc. QS S Assist CDK4/Cyclin D3_FP Kit
- Sequence (P11802 whole entry, one chain of several): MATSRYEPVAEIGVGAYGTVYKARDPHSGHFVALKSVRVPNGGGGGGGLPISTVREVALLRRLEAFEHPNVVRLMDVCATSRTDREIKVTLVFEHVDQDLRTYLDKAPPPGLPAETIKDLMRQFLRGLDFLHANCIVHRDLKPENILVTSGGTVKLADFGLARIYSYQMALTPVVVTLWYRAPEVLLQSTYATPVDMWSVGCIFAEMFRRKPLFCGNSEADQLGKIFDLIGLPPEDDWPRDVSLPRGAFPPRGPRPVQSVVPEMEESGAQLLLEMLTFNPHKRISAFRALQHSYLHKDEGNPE
- experiment.description: Human CDK4/cyclin D3 inhibitory activity (QS S Assist CDK4/Cyclin D3_FP Kit, IMAP fluorescence polarization)
- Assay type: biochemical
- particulars: 50% inhibitory concentration against CDK4/cyclin D3, given as class symbol
- Experimental: Human CDK4/Cyclin D3 Inhibitory Activity Each compound was analyzed for CDK4/cyclin D3 inhibitory activity with an assay kit (QS S Assist CDK4/Cyclin D3_FP Kit, available from Carna Biosciences, Inc.). […] Specifically, the kinase activity is determined through quantification of a variation in fluorescent polarization caused by binding of a kinase-phosphorylated fluorescent substance to an IMAP-binding reagent. […]
measured.attribute: IC50

Qu. Param item = CCCNc1nc([C@@H](C)O)cc2cnc(Nc3ccc4c(n3)CCN(C(=O)CO)C4)nc12 [Compound 1116] ; retrieve measured IC50.
Ans. < 10 nM

Qu. GET /values?readout=IC50&item= CO[C@H](C)c1cc2cnc(Nc3ccc4c(n3)CCN(CCN(C)C)C4)nc2c(N[C@H]2CCCOC2)n1 [Compound 1132]
Ans. < 10 nM

Qu. Which IC50 value belongs to CC(C)Nc1nc([C@@H](C)O)cc2cnc(Nc3ccc(N4CCCC5(CCCN5)C4=O)cn3)nc12 (stereo partly drawn) [Compound 630] ?
Ans. < 10 nM

Qu. I'd like to know its IC50. The compound in question is c1cc(Nc2ncc3cc(C4CCOC4)nc(N[C@H]4CCCOC4)c3n2)ncc1CN1CCNCC1 (single isomer, unassigned) [Compound 940]
Ans. < 10 nM

Qu. Fill in the blank: the reported IC50 of C[C@@H](O)c1cc2cnc(Nc3ccc(N4CCNCC4)nn3)nc2c(NC2(C)CC2)n1 [Compound 1175] is ____.
Ans. < 10 nM

Qu. State the recorded IC50 for this entry: CCCNc1nc([C@@H](C)O)cc2cnc(Nc3ccc(N4CCNCC4)c(C)n3)nc12 [Compound 1092]
Ans. < 10 nM

Qu. Which IC50 is reported for this compound? CCNc1nc([C@@H](C)OC)cc2cnc(Nc3ccc(N4CCNCC4)cn3)nc12 [Compound 919]
Ans. < 10 nM

Qu. # query: IC50 of entry CCNc1nc([C@@H](C)O)cc2cnc(Nc3ccc(CN4CCCN(CCO)CC4)cn3)nc12 [Compound 1216]
Ans. < 10 nM

Qu. State the recorded IC50 for this entry: CCCNc1nc([C@@H](C)O)cc2cnc(Nc3ccc4c(n3)CCN(C(=O)OCCN(C)C)C4)nc12 [Compound 1141]
Ans. < 10 nM

Qu. Entry OCCN1CCN(Cc2ccc(Nc3ncc4cc(C5CCOC5)nc(N[C@H]5CCCOC5)c4n3)nc2)CC1 (stereo partly drawn) [Compound 1011] : reported IC50 = ?
Ans. < 10 nM

Qu. Consider the compound CC(C)Nc1nc([C@@H](C)O)cc2cnc(Nc3ccc(N4CCC(C(C)(C)C(=O)O)CC4)nn3)nc12 [Compound 794] and give its measured IC50.
Ans. < 10 nM

Qu. Can you look up the measured IC50 of CCCNc1nc([C@@H](C)OC)cc2cnc(Nc3ccc(CN4CCN(CCO)CC4)cn3)nc12 [Compound 852] for me?
Ans. < 10 nM

Qu. # input compound: C[C@@H](O)c1cc2cnc(Nc3ccc(CN4CCN(CCO)CC4)cn3)nc2c(NCC2CCOCC2)n1 [Compound 847] ; wanted: its IC50
Ans. < 10 nM

Qu. Entry C[C@@H](O)c1cc2cnc(Nc3ccc(N4CCNCC4=O)cn3)nc2c(NC2CCCC2)n1 [Compound 1078] has what IC50?
Ans. < 10 nM

Qu. Requested field: IC50. Item: CO[C@H](C)c1cc2cnc(Nc3ccc(N4CCN(C(=O)C(C)C)CC4)nn3)nc2c(NC(C)C)n1 [Compound 747]
Ans. 10 to 100 nM

----------
- target.or.test.system: CDK6/cyclin D3 (Homo sapiens)
- Sequence (Q00534 whole entry): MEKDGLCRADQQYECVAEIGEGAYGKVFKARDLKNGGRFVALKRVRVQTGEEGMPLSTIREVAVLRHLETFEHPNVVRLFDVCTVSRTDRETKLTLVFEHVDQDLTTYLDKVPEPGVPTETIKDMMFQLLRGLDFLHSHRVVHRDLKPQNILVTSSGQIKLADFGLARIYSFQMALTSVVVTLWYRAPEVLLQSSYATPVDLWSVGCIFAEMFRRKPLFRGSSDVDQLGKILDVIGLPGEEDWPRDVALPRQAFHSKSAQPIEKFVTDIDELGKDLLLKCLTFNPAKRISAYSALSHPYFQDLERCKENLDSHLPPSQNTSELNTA
- Sequence (P30281 whole entry partner): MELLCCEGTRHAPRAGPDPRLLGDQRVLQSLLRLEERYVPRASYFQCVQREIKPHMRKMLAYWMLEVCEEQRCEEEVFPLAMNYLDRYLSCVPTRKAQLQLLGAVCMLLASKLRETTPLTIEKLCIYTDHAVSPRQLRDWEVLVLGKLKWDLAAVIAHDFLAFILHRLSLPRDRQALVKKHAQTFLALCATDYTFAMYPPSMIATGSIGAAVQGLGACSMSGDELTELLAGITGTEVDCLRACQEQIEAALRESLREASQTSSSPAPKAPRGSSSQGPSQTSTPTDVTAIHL
- experiment.description: Human CDK6/cyclin D3 inhibitory activity (off-chip mobility shift assay)
- particulars: 50% inhibitory concentration against CDK6/cyclin D3; 300 μM ATP, room temperature, five hours; read-out: CDK6 Activity Symbol
pIC50: −log10 of the molar value.
measured.attribute: pIC50

Qu. # input compound: CC(C)Nc1nc(C2(C)COC2)cc2cnc(Nc3ccc(N4CCNCC4=O)cn3)nc12 ; wanted: its pIC50
Ans. > 8.00

Qu. Could you share which pIC50 value was measured for CC(C)Nc1nc(C2(C)COC2)cc2cnc(Nc3ccc(N4CCNCC4)nn3)nc12 ?
Ans. > 8.00

Qu. # pIC50 lookup, item CC(C)Nc1nc(C2(C)COC2)cc2cnc(Nc3ccc(CN4CCNCC4)cn3)nc12
Ans. > 8.00

Qu. So what does the record say about pIC50 for CC(C)Nc1nc(C2CCCO2)cc2cnc(Nc3ccc(N4CCNCC4=O)cn3)nc12 (single isomer, unassigned) ?
Ans. 7.00 to 8.00

Qu. Bench note: what pIC50 did CCC(O)c1cc2cnc(Nc3ccc(N4CCNCC4=O)cn3)nc2c(NC(C)C)n1 (stereo not drawn) show?
Ans. 7.00 to 8.00

Qu. Quick check: pIC50 of CO[C@H](C)c1cc2cnc(Nc3cnc(N4CCNCC4)cn3)nc2c(NC(C)C)n1 ?
Ans. 7.00 to 8.00

Qu. Name the reported pIC50 value associated with the compound CCNc1nc([C@@H](C)O)cc2cnc(Nc3ccc(CN4CCN(CCO)CC4)cn3)nc12
Ans. 7.00 to 8.00

Qu. Given CC(C)Nc1nc([C@@H](C)O)cc2cnc(Nc3ccc(N4CCNCC4=O)cn3)nc12 , state its recorded pIC50.
Ans. > 8.00

Qu. Can you share its pIC50? I mean this compound: CCCNc1nc([C@@H](C)O)cc2cnc(Nc3ccc(CN4CCN(CCO)CC4)cn3)nc12
Ans. > 8.00

----------
Please provide measured IC50 for the entries that follow.
- target.or.test.system: CDK4/cyclin D3 (Homo sapiens)
- Construct: purchased Carna Biosciences, Inc. QS S Assist CDK4/Cyclin D3_FP Kit
- experiment.description: Human CDK4/cyclin D3 inhibitory activity (QS S Assist CDK4/Cyclin D3_FP Kit, IMAP fluorescence polarization)
- Type: biochemical
- particulars: Human CDK4/cyclin D3 inhibitory activity; read-out: CDK4 Activity symbol

Qu. # query: IC50 of entry C[C@@H](O)c1cc2cnc(Nc3ccc(N4CCN(C=O)CC4=O)cn3)nc2c(N[C@@H]2CCOC2)n1
Ans. < 10 nM

Qu. If you can, please state the reported IC50 value of CC(C)Nc1nc(C(F)F)cc2cnc(Nc3ccc(CN4CCNC(=O)C4)cn3)nc12 .
Ans. < 10 nM

Qu. Consider the compound CO[C@H](C)c1cc2cnc(Nc3ccc(CCCN4CCOCC4=O)cn3)nc2c(NC(C)C)n1 and give its measured IC50.
Ans. 10 to 100 nM

Qu. Recorded IC50 of CNC1CC2(C1)CN(c1ccc(Nc3ncc4cc([C@@H](C)O)nc(NC(C)C)c4n3)nn1)C2 , please.
Ans. < 10 nM

Qu. Need IC50 of CC(C)Nc1nc([C@@H](C)O)cc2cnc(Nc3ccc(O[C@H]4CCNC[C@H]4F)cn3)nc12 , thanks.
Ans. < 10 nM

Qu. Give the measured IC50 of COC(C)c1cc2cnc(Nc3ccc(CN4CCNCC4)cn3)nc2c(NCC(C)C)n1 (stereo not shown) .
Ans. < 10 nM

Qu. What does the data say about its IC50? Entry: CC(C)Nc1nc(C(F)F)cc2cnc(Nc3ccc(-c4cnn(C)c4)cn3)nc12
Ans. 10 to 100 nM

Qu. Need IC50 of COC(C)c1cc2cnc(Nc3ccc(CN4CCNCC4)cn3)nc2c(NC2CCCN(C)C2)n1 (stereo not shown) , thanks.
Ans. 10 to 100 nM

Qu. Query (compound): CNC1CCN(c2ccc(Nc3ncc4cc([C@@H](C)O)nc(NC(C)C)c4n3)nn2)CC1 ; field requested: IC50
Ans. < 10 nM

Qu. What value of measured IC50 is listed for COC(C)c1cc2cnc(Nc3ccc(CN4CCNCC4)cn3)nc2c(NC2CCCC(O)C2)n1 (stereo not shown) ?
Ans. < 10 nM

Qu. Which measured IC50 value corresponds to CC(C)Nc1nc(C(F)F)cc2cnc(Nc3ccc(CCNS(C)(=O)=O)cn3)nc12 ?
Ans. < 10 nM

Qu. Recorded IC50 of CC(C)Nc1nc(C(F)F)cc2cnc(Nc3ccc(CN4CCNCC4=O)cn3)nc12 , please.
Ans. < 10 nM

Qu. Form field: reported IC50 of C[C@@H](O)c1cc2cnc(Nc3ccc(N4CCNCC4)nn3)nc2c(NC2CCS(=O)(=O)CC2)n1
Ans. 10 to 100 nM

Qu. // IC50 lookup, key: CC(O)c1cc2cnc(Nc3ccc(N4CCNCC4)cn3)nc2c(NC2CC2)n1 (stereo not shown)
Ans. < 10 nM

Qu. Which value of IC50 has been reported for C[C@@H](O)c1cc2cnc(Nc3ccc(CN4CCNCC4)cn3)nc2c(NCC2CCOC2)n1 (stereo partly shown) in the records?
Ans. < 10 nM

Qu. Given the entry CO[C@H](C)c1cc2cnc(Nc3ccc(N4CC5(CCN5)C4)cn3)nc2c(NC(C)C)n1 , report its measured IC50.
Ans. < 10 nM

Qu. May I ask what IC50 has been recorded for C[C@@H](O)c1cc2cnc(Nc3ccc(CN4CCNCC4)cn3)nc2c(N[C@H]2CCCOC2)n1 ?
Ans. < 10 nM

Qu. Which IC50 reading was recorded for the compound COC(C)c1cc2cnc(Nc3ccc(CN4CCNCC4)cn3)nc2c(N[C@H]2CC[C@H](OC(C)C)CC2)n1 (stereo partly shown) ?
Ans. < 10 nM

Qu. Item under review: CO[C@H](C)c1cc2cnc(Nc3ccc(OCC4(N)CCC4)cn3)nc2c(NC(C)C)n1 . Reported IC50?
Ans. 10 to 100 nM

Qu. State the recorded IC50 for this entry: CC(C)Nc1nc(C(F)F)cc2cnc(Nc3ccc(OCC(C)(C)CO)cn3)nc12
Ans. 10 to 100 nM

Qu. // query IC50 value for entry COC(C)c1cc2cnc(Nc3ccc(O[C@H]4CCNC[C@H]4F)cn3)nc2c(NC(C)C)n1 (relative stereo)
Ans. < 10 nM

Qu. What does the record list as IC50 for CCCN1CCN(Cc2ccc(Nc3ncc4cc([C@@H](C)OC)nc(NC(C)C)c4n3)nc2)CC1 ?
Ans. < 10 nM

Qu. # IC50 lookup, item C[C@@H](O)c1cc2cnc(Nc3ccc(CN4CCNCC4)cn3)nc2c(N[C@@H]2CCCOC2)n1
Ans. < 10 nM

Qu. // returns reported IC50 for input CO[C@H](C)c1cc2cnc(Nc3ccc(N4CCNCC4)nn3)nc2c(NCC2CCOCC2)n1
Ans. < 10 nM

Qu. Reported IC50 for CNC1CCN(c2ccc(Nc3ncc4cc(C(C)O)nc(NC(C)C)c4n3)nn2)CC1F (stereo not shown) [Compound 609] : what is it?
Ans. < 10 nM

Qu. Recorded IC50 for CC(C)Nc1nc(C(F)F)cc2cnc(Nc3ccc(N4CC[C@H](O)CC4=O)cn3)nc12 , please?
Ans. < 10 nM

Qu. Tell me the measured IC50 of CC1(C)NCCN(c2ccc(Nc3ncc4cc(C(F)F)nc(N[C@H]5CC[C@H](O)CC5)c4n3)nc2)C1=O , please.
Ans. 10 to 100 nM

Qu. Fill in the blank: the reported IC50 of CC(C)Nc1nc([C@@H](C)O)cc2cnc(Nc3ccc(N4CCNC5(CC5)C4)nn3)nc12 is ____.
Ans. < 10 nM

Qu. Reported IC50, compound CNCCCOc1ccc(Nc2ncc3cc([C@@H](C)OC)nc(NC(C)C)c3n2)nc1 : ____
Ans. < 10 nM

Qu. Could you tell me which IC50 is on file for CC(C)Nc1nc(C(F)F)cc2cnc(Nc3ccc(N4CCN(CCO)CC4)cn3)nc12 ?
Ans. < 10 nM

Qu. I am curious: what IC50 value has been reported for CC(C)(C)Nc1nc(C(F)F)cc2cnc(Nc3ccc(N4CCNCC4)cn3)nc12 ?
Ans. < 10 nM
